experiment: Plasma levels in SHR after oral dosing
Assay type: in vivo
measurement.setup: rat, 10 mg/kg, 10 mpk orally, sampled 0.5, 1, 2, 3 and 4 hours, read-out: Plasma Level AUC
result.type: AUC at 4 h (ng·h/mL)

(P) CN1C(=O)c2[nH]c(Cc3ccc(-c4ccc(F)cc4)cc3)nc2N2CC3(CCCC3)N=C12
(Q) CN1C(=O)c2[nH]c(Cc3ccc(-c4ccc(Cl)cc4)cc3)nc2N2CC3(CCCC3)N=C12
Input: Higher AUC at 4 h between P and Q ? Answer with the label corresponding to your selection.
Output: P
(P: 7730 ng·h/mL, Q: 4800 ng·h/mL)

(P) CN1C(=O)c2[nH]c(Cc3ccc(-c4ccc(Br)cc4)cc3)nc2N2CC3(CCCC3)N=C12
(Q) COc1ccc(-c2ccc(Cc3nc4c([nH]3)C(=O)N(C)C3=NC5(CCCC5)CN34)cc2)cc1 [Ref. Cpd., reference compound]
Input: Choose between P and Q : whose measured AUC at 4 h value is numerically larger? Which one? Tell me its label.
Output: P
(P: 5890 ng·h/mL, Q: 3340 ng·h/mL)

----------
Recorded measurements of SHR Antihypertensive: Fall in MBP, one per entry
System: spontaneously hypertensive rats (SHR)
experiment: Antihypertensive activity in conscious spontaneously hypertensive rats (SHR)
Format: in vivo, rat
measurement.setup: 10 mpk po, fasted overnight, mean blood pressure
Expressed in mmHg, but write only the number.

Solved entries (count: 3):
COc1ccc(-c2ccc(Cc3nc4c([nH]3)C(=O)N(C)C3=NC5(CCCC5)CN34)cc2)cc1 [Ref. Cpd., reference compound] = -35
CN1C(=O)c2[nH]c(Cc3ccc(-c4ccc(Cl)cc4)cc3)nc2N2CC3(CCCC3)N=C12 = -24
CN1C(=O)c2[nH]c(Cc3ccc(-c4ccc(F)cc4)cc3)nc2N2CC3(CCCC3)N=C12 = -35

# context switch: different compound, same SHR Antihypertensive: Fall in MBP
In plain terms, CN1C(=O)c2[nH]c(Cc3ccc(-c4ccc(Br)cc4)cc3)nc2N2CC3(CCCC3)N=C12 has a documented SHR Antihypertensive: Fall in MBP of -11

----------
target.or.test.system: PDE Type I (calcium-calmodulin dependent phosphodiesterase, CaM-PDE) (Bos taurus, UniProt P14100)
experiment: Phosphodiesterase inhibition in vitro, Type I (calcium-calmodulin dependent phosphodiesterase, CaM-PDE)
measurement.setup: CaM-PDE from bovine aorta; 1 μM 3H-cGMP substrate; pH 7.5; 25 minutes, room temperature
pIC50: −log10 of the molar value.
result.type: pIC50

CN1C(=O)c2[nH]c(Cc3ccc(-c4ccc(Cl)cc4)cc3)nc2N2CC3(CCCC3)N=C12 [Example 1] = 7.96
CN1C(=O)c2[nH]c(Cc3ccc(-c4ccc(Br)cc4)cc3)nc2N2CC3(CCCC3)N=C12 [Example 2] = 7.92

(P) COc1ccc(-c2ccc(Cc3nc4c([nH]3)C(=O)N(C)C3=NC5(CCCC5)CN34)cc2)cc1 [Ref. Cpd., reference compound]
(Q) CN1C(=O)c2[nH]c(Cc3ccc(-c4ccc(F)cc4)cc3)nc2N2CC3(CCCC3)N=C12 [Example 3]
Input: Which value of pIC50 is greater, the one for P or the one for Q ? Give the chosen item's label as your response.
Output: P
(P: 8.30, Q: 8.05)
